Hello, the source for this data is patent US20120121596A1, in case you need it.

Target: T1, HER2-ECD (human, UniProt P04626 23-652)
T1 construct: extracellular domain
Assay: direct phage ELISA, proteins coated at 2 µg/ml, phage-Fab supernatant, OD450;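 note: specificity test of dual-activity clones, with binding assessed across an antigen panel to check whether each recognises only its cognate target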
Observable: binding result

Binder	Measured
D1.5-121 (phage-displayed Fab clone) (Fab, V domains shown, EGFR/HER3 clone) VH: EVQLVESGGGLVQPGGSLRLSCAASGFTFTGNWIHWVRQAPGKGLEWVGEISPSGGYTDYADSVKGRFTISADTSKNTAYLQMNSLRAEDTAVYYCARESRVSYEAAMDYWGQGTLVTVSS VL: DIQMTQSPSSLSASVGDRVTITCRASQDVGSDLAWYQQKPGKAPKLLIYSASYLYSGVPSRFSGSGSGTDFTLTISSLQPEDFATYYCQQSDPEPYTFGQGTKVEIKR	no binding
D1.5-103 (phage-displayed Fab clone) (Fab, V domains shown, EGFR/HER3 clone) VH: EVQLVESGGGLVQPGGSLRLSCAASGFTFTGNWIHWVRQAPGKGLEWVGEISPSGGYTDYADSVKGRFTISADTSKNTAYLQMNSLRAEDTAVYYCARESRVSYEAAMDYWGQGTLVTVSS VL: DIQMTQSPSSLSASVGDRVTITCRASQALGDSENGYADVAWYQQKPGKAPKLLIYEGSSLYSGVPSRFSGSGSGTDFTLTISSLQPEDFATYYCQQAAPSPYTFGQGTKVEIKR	no binding
